Test system: Raji (Burkitt's Lymphoma)
Assay: Bliss excess, mean over the matrix (fraction); higher = more synergy
recorded endpoint: Bliss excess
Lab note: write the figure by itself, no unit.

CN(C)CCCOc1ccc(-c2ccc3ncc4c(c3c2)n(C2CCOCC2)c(=O)n4C)cn1 [AZD0156] + C=CCn1c(=O)c2cnc(Nc3ccc(N4CCN(C)CC4)cc3)nc2n1-c1cccc(C(C)(C)O)n1 [AZD1775] (first compound max 1 µM, partner max 1 µM)	-0.0278

Now examine the next entry.
Give its Bliss excess value. Item: Cc1c2c(nn1C)CSCc1cc(n(C)n1)CSc1cc(c3ccccc3c1)OCCCc1c(C(=O)O)n(C)c3c-2c(Cl)ccc13 [AZD5991] + CC1(C)CCC(CN2CCN(c3ccc(C(=O)NS(=O)(=O)c4ccc(NCC5CCOCC5)c([N+](=O)[O-])c4)c(Oc4cnc5[nH]ccc5c4)c3)CC2)=C(c2ccc(Cl)cc2)C1 [Venetoclax] (first compound max 1 µM, 7x7, partner max 1 µM)
0.0287

---

Test system: SK-N-SH (Neuroblastoma)
Test: combination Emax (second highest fraction inhibited in the dose matrix, 72 h); higher = more inhibition; extreme values may be limits of the assay
Think of 0.6 as a floor: if combination Emax stands on it or above, it is Satisfied; beneath it, Not satisfied.

Consider the worked cases shown below.
CN(CCO)CC[C@H](CSc1ccccc1)Nc1ccc(S(=O)(=O)NC(=O)c2ccc(N3CCC([C@@H](O)c4ccccc4-c4ccc(Cl)cc4)CC3)cc2)cc1S(=O)(=O)C(F)(F)F [AZD4320] + C=CCn1c(=O)c2cnc(Nc3ccc(N4CCN(C)CC4)cc3)nc2n1-c1cccc(C(C)(C)O)n1 [AZD1775] (first compound max 1 µM, partner max 1 µM)	Satisfied
CN(CCO)CC[C@H](CSc1ccccc1)Nc1ccc(S(=O)(=O)NC(=O)c2ccc(N3CCC([C@@H](O)c4ccccc4-c4ccc(Cl)cc4)CC3)cc2)cc1S(=O)(=O)C(F)(F)F [AZD4320] + CN(C)CCCOc1ccc(-c2ccc3ncc4c(c3c2)n(C2CCOCC2)c(=O)n4C)cn1 [AZD0156] (first compound max 1 µM, 7x7, partner max 1 µM)	Satisfied

In plain terms: is recorded combination Emax at least 0.6 for Cc1c2c(nn1C)CSCc1cc(n(C)n1)CSc1cc(c3ccccc3c1)OCCCc1c(C(=O)O)n(C)c3c-2c(Cl)ccc13 [AZD5991] + Cc1cc2ncnn2cc1Nc1ncc2c(n1)n(C1CCOCC1)c(=O)n2C [AZD7648] (first compound max 1 µM, 7x7, partner max 10 µM) ?
Not satisfied

In plain terms: is recorded combination Emax at least 0.6 for COc1nnc2ccc(N3CCC(c4ccc(OCCN5CCN(C)C(=O)[C@H]5C)cc4)CC3)nn12 [AZD5153] + C[C@@H]1COCCN1C2=NC(=NC(=C2)C3(CC3)[S@](=N)(=O)C)C4=C5C=CNC5=NC=C4 [AZD6738] (first compound max 1 µM, 7x7, partner max 10 µM) ?
Satisfied

In plain terms: is recorded combination Emax at least 0.6 for NC1(C(=O)N[C@@H](CCO)c2ccc(Cl)cc2)CCN(c2ncnc3[nH]ccc23)CC1 [Capivasertib] + CC(=O)c1c(C)c2cnc(Nc3ccc(N4CCNCC4)cn3)nc2n(C2CCCC2)c1=O [Palbociclib] (first compound max 10 µM, 7x7, partner max 10 µM) ?
Not satisfied

In plain terms: is recorded combination Emax at least 0.6 for CN(CCO)CC[C@H](CSc1ccccc1)Nc1ccc(S(=O)(=O)NC(=O)c2ccc(N3CCC([C@@H](O)c4ccccc4-c4ccc(Cl)cc4)CC3)cc2)cc1S(=O)(=O)C(F)(F)F [AZD4320] + CS(=O)(=O)CCNCc1ccc(-c2ccc3ncnc(Nc4ccc(OCc5cccc(F)c5)c(Cl)c4)c3c2)o1 [Lapatinib] (first compound max 1 µM, 7x7, partner max 10 µM) ?
Satisfied

---

System: NAMALWA (Burkitt's Lymphoma)
Test: Bliss excess, mean over the matrix (fraction); higher = more synergy
Quick list: Bliss excess per entry.
Lab note: write the figure by itself, no unit.

Please review the following examples before continuing.
CCN(CCO)CCCOc1ccc2c(Nc3cc(CC(=O)Nc4cccc(F)c4)[nH]n3)ncnc2c1 [AZD2811] + O=C(c1cc(Cc2n[nH]c(=O)c3ccccc23)ccc1F)N1CCN(C(=O)C2CC2)CC1 [Olaparib] (first compound max 1 µM, 7x7, partner max 10 µM)	0.0548
Cc1cc2ncnn2cc1Nc1ncc2c(n1)n(C1CCOCC1)c(=O)n2C [AZD7648] + C=CCn1c(=O)c2cnc(Nc3ccc(N4CCN(C)CC4)cc3)nc2n1-c1cccc(C(C)(C)O)n1 [AZD1775] (first compound max 10 µM, partner max 1 µM)	-0.0101
Cc1cc2ncnn2cc1Nc1ncc2c(n1)n(C1CCOCC1)c(=O)n2C [AZD7648] + C[C@@H]1COCCN1C2=NC(=NC(=C2)C3(CC3)[S@](=N)(=O)C)C4=C5C=CNC5=NC=C4 [AZD6738] (first compound max 10 µM, 7x7, partner max 10 µM)	-0.0089

Now examine the next entry.
Give its Bliss excess value. Item: COc1cccc(OCCCN)c1-c1cc(Nc2cnc(C#N)cn2)n[nH]1 [Prexasertib] + C=CCn1c(=O)c2cnc(Nc3ccc(N4CCN(C)CC4)cc3)nc2n1-c1cccc(C(C)(C)O)n1 [AZD1775] (first compound max 1 µM, partner max 1 µM)
0.06

---

Tested on: AM-38 (Glioblastoma)
Assay: Bliss excess, mean over the matrix (fraction); higher = more synergy
recorded endpoint: Bliss excess
Lab note: write the figure by itself, no unit.

CC(=O)c1c(C)c2cnc(Nc3ccc(N4CCNCC4)cn3)nc2n(C2CCCC2)c1=O [Palbociclib] + CN(CC[C@H](CSC1=CC=CC=C1)NC2=C(C=C(C=C2)S(=O)(=O)NC(=O)C3=CC=C(C=C3)N4CCC(CC4)[C@H](C5=CC=CC=C5C6=CC=C(C=C6)Cl)O)S(=O)(=O)C(F)(F)F)CCO [AZD4320] (first compound max 10 µM, 7x7, partner max 1 µM)	-0.0234

Give its Bliss excess value. Item: Cc1c2c(nn1C)CSCc1cc(n(C)n1)CSc1cc(c3ccccc3c1)OCCCc1c(C(=O)O)n(C)c3c-2c(Cl)ccc13 [AZD5991] + CN(C)CCCOc1ccc(-c2ccc3ncc4c(c3c2)n(C2CCOCC2)c(=O)n4C)cn1 [AZD0156] (first compound max 1 µM, 7x7, partner max 1 µM)
0.0291

---

Tested on: UACC-257 (Melanoma)
Assay: Bliss excess, mean over the matrix (fraction); higher = more synergy
Quick list: Bliss excess per entry.
Lab note: write the figure by itself, no unit.

Please review the following examples before continuing.
COc1nnc2ccc(N3CCC(c4ccc(OCCN5CCN(C)C(=O)[C@H]5C)cc4)CC3)nn12 [AZD5153] + C[C@@H]1COCCN1C2=NC(=NC(=C2)C3(CC3)[S@](=N)(=O)C)C4=C5C=CNC5=NC=C4 [AZD6738] (first compound max 1 µM, 7x7, partner max 10 µM)	0.0581
COc1cccc(OCCCN)c1-c1cc(Nc2cnc(C#N)cn2)n[nH]1 [Prexasertib] + C=CCn1c(=O)c2cnc(Nc3ccc(N4CCN(C)CC4)cc3)nc2n1-c1cccc(C(C)(C)O)n1 [AZD1775] (first compound max 1 µM, partner max 1 µM)	0.0714
Cc1c2c(nn1C)CSCc1cc(n(C)n1)CSc1cc(c3ccccc3c1)OCCCc1c(C(=O)O)n(C)c3c-2c(Cl)ccc13 [AZD5991] + C1CN(CCC1(C(=O)N[C@@H](CCO)C2=CC=C(C=C2)Cl)N)C3=NC=NC4=C3C=CN4 [Capivasertib] (first compound max 1 µM, 7x7, partner max 3 µM)	0.0061

Give its Bliss excess value. Item: Cn1cnc2c(F)c(Nc3ccc(Br)cc3Cl)c(C(=O)NOCCO)cc21 [Selumetinib] + C[C@@H]1COCCN1C2=NC(=NC(=C2)C3(CC3)[S@](=N)(=O)C)C4=C5C=CNC5=NC=C4 [AZD6738] (first compound max 10 µM, 7x7, partner max 10 µM)
0.047

Give its Bliss excess value. Item: NC1(C(=O)N[C@@H](CCO)c2ccc(Cl)cc2)CCN(c2ncnc3[nH]ccc23)CC1 [Capivasertib] + CC(=O)c1c(C)c2cnc(Nc3ccc(N4CCNCC4)cn3)nc2n(C2CCCC2)c1=O [Palbociclib] (first compound max 10 µM, 7x7, partner max 10 µM)
-0.0046

Give its Bliss excess value. Item: Cc1cc2ncnn2cc1Nc1ncc2c(n1)n(C1CCOCC1)c(=O)n2C [AZD7648] + O=C(c1cc(Cc2n[nH]c(=O)c3ccccc23)ccc1F)N1CCN(C(=O)C2CC2)CC1 [Olaparib] (first compound max 10 µM, 7x7, partner max 10 µM)
-0.0422

Give its Bliss excess value. Item: CC1(C)CCC(CN2CCN(c3ccc(C(=O)NS(=O)(=O)c4ccc(NCC5CCOCC5)c([N+](=O)[O-])c4)c(Oc4cnc5[nH]ccc5c4)c3)CC2)=C(c2ccc(Cl)cc2)C1 [Venetoclax] + CCN(CCO)CCCOc1ccc2c(Nc3cc(CC(=O)Nc4cccc(F)c4)[nH]n3)ncnc2c1 [AZD2811] (first compound max 1 µM, 7x7, partner max 1 µM)
-0.0105
